target: aromatase (CYP19) (Homo sapiens); experiment: Inhibition of aromatase (AIA); type: biochemical; conditions: at 12.5 µM; I = %inhibition lower than 50%; read-out: Aromatase inhibitory activity %Inhibition
Sequence (P11511 whole entry): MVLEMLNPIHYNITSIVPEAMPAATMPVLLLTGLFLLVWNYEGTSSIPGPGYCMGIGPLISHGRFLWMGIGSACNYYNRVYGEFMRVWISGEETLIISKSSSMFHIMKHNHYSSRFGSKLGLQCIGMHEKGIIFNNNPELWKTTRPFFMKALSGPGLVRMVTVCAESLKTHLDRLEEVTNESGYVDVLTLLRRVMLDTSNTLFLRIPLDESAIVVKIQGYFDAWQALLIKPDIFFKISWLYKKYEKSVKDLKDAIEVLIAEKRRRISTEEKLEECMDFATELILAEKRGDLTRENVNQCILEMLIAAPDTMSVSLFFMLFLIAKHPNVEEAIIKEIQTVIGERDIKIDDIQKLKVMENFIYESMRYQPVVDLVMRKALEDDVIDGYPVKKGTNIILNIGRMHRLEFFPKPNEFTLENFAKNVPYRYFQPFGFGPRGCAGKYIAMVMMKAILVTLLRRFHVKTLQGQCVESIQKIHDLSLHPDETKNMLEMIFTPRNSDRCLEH
value_type: inhibition at 12.5 µM (%)
Answers are plain numbers, in %.

Worked set:
entry_smiles: COc1c2occc2c(NC(=O)c2cccc([N+](=O)[O-])c2)c2ccc(=O)oc12
inhibition at 12.5 µM / %: 4

entry_smiles: COc1c2occc2c(NC(=O)c2ccc(C(F)(F)F)cc2)c2ccc(=O)oc12
inhibition at 12.5 µM / %: 10

entry_smiles: COc1c2occc2c(NC(=O)c2ccco2)c2ccc(=O)oc12
inhibition at 12.5 µM / %: 16

For every listed record, write down its inhibition at 12.5 µM.
1. COc1c2occc2c(NC(=O)C(C)(C)C)c2ccc(=O)oc12
2. COc1c2occc2c(NC(=O)c2ccc(F)cc2)c2ccc(=O)oc12

(A)
1. 14
2. 6

Where do these numbers come from? They come from paper PMC9356065.
